Catalogue of kinase still bound, per cent of control values
Target: MET (human) (UniProt P08581)
Sequence (P08581 whole entry, looked up): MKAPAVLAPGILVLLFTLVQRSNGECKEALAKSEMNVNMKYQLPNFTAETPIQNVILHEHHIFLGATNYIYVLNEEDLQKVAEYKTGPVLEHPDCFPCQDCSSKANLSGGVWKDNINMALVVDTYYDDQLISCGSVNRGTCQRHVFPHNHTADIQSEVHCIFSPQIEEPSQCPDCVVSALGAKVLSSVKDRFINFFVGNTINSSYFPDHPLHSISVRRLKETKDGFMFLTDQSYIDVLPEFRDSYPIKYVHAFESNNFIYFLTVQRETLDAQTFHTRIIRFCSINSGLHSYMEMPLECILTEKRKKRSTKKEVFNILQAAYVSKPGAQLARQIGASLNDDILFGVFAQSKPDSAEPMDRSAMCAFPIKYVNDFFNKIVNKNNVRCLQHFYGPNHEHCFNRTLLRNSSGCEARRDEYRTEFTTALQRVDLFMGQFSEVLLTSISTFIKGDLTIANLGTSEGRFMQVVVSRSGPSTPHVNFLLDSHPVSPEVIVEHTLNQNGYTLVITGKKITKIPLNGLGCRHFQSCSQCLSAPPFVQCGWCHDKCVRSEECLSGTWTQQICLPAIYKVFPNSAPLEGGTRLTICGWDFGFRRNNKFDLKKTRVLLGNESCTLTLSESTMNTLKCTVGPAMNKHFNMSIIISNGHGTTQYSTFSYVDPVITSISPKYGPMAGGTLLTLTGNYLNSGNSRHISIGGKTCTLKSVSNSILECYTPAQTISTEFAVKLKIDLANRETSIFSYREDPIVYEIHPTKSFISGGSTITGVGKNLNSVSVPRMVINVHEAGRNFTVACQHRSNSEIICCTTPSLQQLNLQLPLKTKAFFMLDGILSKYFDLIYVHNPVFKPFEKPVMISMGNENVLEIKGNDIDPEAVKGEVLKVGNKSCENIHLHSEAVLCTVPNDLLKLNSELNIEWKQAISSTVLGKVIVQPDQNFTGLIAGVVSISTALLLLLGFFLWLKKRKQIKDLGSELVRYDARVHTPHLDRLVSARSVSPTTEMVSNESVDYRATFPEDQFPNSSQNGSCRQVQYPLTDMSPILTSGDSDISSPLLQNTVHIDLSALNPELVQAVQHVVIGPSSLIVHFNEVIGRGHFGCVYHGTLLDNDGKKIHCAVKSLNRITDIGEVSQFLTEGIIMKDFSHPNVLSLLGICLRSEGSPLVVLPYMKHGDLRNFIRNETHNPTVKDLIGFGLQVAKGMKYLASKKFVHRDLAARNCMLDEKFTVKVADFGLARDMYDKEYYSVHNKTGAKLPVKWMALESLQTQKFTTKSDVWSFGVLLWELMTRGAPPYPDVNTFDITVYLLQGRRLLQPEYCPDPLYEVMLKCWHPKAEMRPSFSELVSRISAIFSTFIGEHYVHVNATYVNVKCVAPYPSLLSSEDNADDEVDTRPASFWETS
Test: KINOMEscan competition binding
Details: compound 10.0 µM
Answer with a number only, understood to be in %.

Solved entries (count: 4):
>>> print(df.to_string())
                               smiles_entry  display_unit  value_measured
0  COc1cc(N2CCC(O)CC2)ccc1Nc1ncc2c(n1)N1CCc3cccc(c31)C(=O)N2C             %              90
1  COc1cc(N2CCN(C)CC2)ccc1Nc1ncc2c(n1)N(C)c1ccccc1N(C)C2=O             %              90
2  COc1cc(N2CCN(C)CC2)ccc1Nc1ncc2c(n1)N(C)c1sccc1C(=O)N2C             %              96
3  COc1cc(N2CCN(C)CC2)ccc1Nc1ncc2c(n1)Nc1ccccc1NC2=O             %              82

Could you now look at the following compound, please?
Response field kinase still bound, per cent of control (MET (human) (UniProt P08581)) for item O=C1NC(=O)/C(=C/c2c[nH]c(=O)c(-c3ccc(N4CCNCC4)nc3)c2)S1 : 97

* * *

Catalogue of kinase still bound, per cent of control values
Molecular target: MAP2K2 (human) (UniProt P36507)
Sequence (P36507 whole entry, looked up): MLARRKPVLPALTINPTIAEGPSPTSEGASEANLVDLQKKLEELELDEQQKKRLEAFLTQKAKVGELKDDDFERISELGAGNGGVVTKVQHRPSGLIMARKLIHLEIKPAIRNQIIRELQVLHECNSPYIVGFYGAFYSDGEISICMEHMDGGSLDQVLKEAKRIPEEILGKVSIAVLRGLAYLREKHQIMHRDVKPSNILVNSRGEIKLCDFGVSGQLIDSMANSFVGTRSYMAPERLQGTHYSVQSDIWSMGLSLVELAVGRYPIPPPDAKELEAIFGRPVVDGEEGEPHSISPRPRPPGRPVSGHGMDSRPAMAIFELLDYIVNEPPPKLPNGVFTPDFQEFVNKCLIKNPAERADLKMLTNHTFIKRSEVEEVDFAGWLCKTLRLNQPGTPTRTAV
Assay: KINOMEscan competition binding
Settings: compound 10.0 µM
Answer with a number only, understood to be in %.

Solved entries (count: 5):
                               smiles_entry                    tested_target  value_measured
0  COc1cc(N2CCN(C)CC2)ccc1Nc1ncc2c(n1)N(C)c1sccc1C(=O)N2C  MAP2K2 (human) (UniProt P36507)              77
1  O=C1NC(=O)/C(=C/c2c[nH]c(=O)c(-c3ccc(N4CCNCC4)nc3)c2)S1  MAP2K2 (human) (UniProt P36507)              15
2  CN1CCN(c2ccc(C(=O)Nc3ncc4c(n3)N(C)c3ccccc3C(=O)N4C)cc2)CC1  MAP2K2 (human) (UniProt P36507)              90
3  COc1cc(N2CCN(C)CC2)ccc1Nc1ncc2c(n1)Nc1ccccc1NC2=O  MAP2K2 (human) (UniProt P36507)              95
4  COc1cc(N2CCN(C)CC2)ccc1Nc1ncc2c(n1)N(C)c1ccccc1N(C)C2=O  MAP2K2 (human) (UniProt P36507)             100

Response field kinase still bound, per cent of control (MAP2K2 (human) (UniProt P36507)) for item CN1C(=O)c2ccccc2N(C)c2nc(NS(=O)(=O)c3ccc(N)cc3)ncc21 : 100

Response field kinase still bound, per cent of control (MAP2K2 (human) (UniProt P36507)) for item O=C1NC(=O)C(=Cc2ccc(-c3ccc(S(=O)(=O)N4CCNCC4)cc3)o2)C(=O)N1 : 17

Response field kinase still bound, per cent of control (MAP2K2 (human) (UniProt P36507)) for item N=C1NC(=O)/C(=C/c2ccc(-c3ccc(C(=O)Nc4ccc(N5CCNCC5)cc4)cc3O)o2)S1 : 33

Response field kinase still bound, per cent of control (MAP2K2 (human) (UniProt P36507)) for item CN1C(=O)c2ccccc2N(C)c2nc(Nc3ccc(N4CCC(O)CC4)cc3)ncc21 : 100

Response field kinase still bound, per cent of control (MAP2K2 (human) (UniProt P36507)) for item COc1cc(N2CCC(O)CC2)ccc1Nc1ncc2c(n1)N1CCc3cccc(c31)C(=O)N2C : 99
